Recorded metric: melting point

Entry "O=C(Nc1ccccc1)N1CCSC1=S" — recorded melting point = 101 to 102 °C

The molecule listed as "O=C(NC1CCCCC1)N1CCSC1=S" has a reported melting point of 114 to 115 °C

For this molecule ( "S=C1SCCN1Cc1ccccc1" ), measured melting point is 115 to 117 °C

// sample "Cc1ccc(S(=O)(=O)NC(=O)N2CCSC2=S)cc1" , its melting point was 127 to 129 °C

Briefly, melting point measured for "O=C(Nc1cccnc1)N1CCSC1=S" : 111 to 113 °C

response.value for "O=C(NCc1ccccc1)N1CCSC1=S" (field: melting point) = 107 to 109 °C

So, "O=C(NS(=O)(=O)c1ccccc1)N1CCSC1=S" ? Its melting point was 121 to 123 °C

====

- Assay target: Xanthine oxidase (XO) (Homo sapiens)
- Run description: In vitro XO inhibitory potency (enzyme catalysis reaction, OD 295 nm)
- Format: biochemical
- Condition parameters: S1 Table, single determination 3 of 3; unit inferred; read-out: IC50 (third replicate column)
Recorded metric: pIC50
Scale for pIC50: -log10 of concentration given in mol/L; no unit attached.

Data point: "SC1=NCCS1" ; pIC50 = 4.15

Reported pIC50 for "CCN1CCSC1=S" was 4.33

Reported pIC50 of "CCCN1CCSC1=S" : 4.18

Reported pIC50 for "O=C(Nc1ccccc1)N1CCSC1=S" was 4.93

Noted for "O=C(NC1CCCCC1)N1CCSC1=S" : its pIC50 reads 4.99

// recorded pIC50 for "O=C(NS(=O)(=O)c1ccc(F)cc1)N1CCSC1=S" : 5.51

Entry "CCCNC(=O)N1CCSC1=S" ; pIC50 = 4.54

# molecule "O=C(Nc1cccnc1)N1CCSC1=S" ; its pIC50 = 4.97

Lab note: "S=C1SCCN1Cc1ccccc1" gave pIC50 of 3.96

# pIC50 (molecule: "CCCCNC(=O)N1CCSC1=S" ) is 4.55

"CC(C)CNC(=O)N1CCSC1=S" has a reported pIC50 of 4.74

====

- Assay target: Xanthine oxidase (XO) (Homo sapiens, UniProt P47989)
- Sequence (P47989 whole entry, species assumed): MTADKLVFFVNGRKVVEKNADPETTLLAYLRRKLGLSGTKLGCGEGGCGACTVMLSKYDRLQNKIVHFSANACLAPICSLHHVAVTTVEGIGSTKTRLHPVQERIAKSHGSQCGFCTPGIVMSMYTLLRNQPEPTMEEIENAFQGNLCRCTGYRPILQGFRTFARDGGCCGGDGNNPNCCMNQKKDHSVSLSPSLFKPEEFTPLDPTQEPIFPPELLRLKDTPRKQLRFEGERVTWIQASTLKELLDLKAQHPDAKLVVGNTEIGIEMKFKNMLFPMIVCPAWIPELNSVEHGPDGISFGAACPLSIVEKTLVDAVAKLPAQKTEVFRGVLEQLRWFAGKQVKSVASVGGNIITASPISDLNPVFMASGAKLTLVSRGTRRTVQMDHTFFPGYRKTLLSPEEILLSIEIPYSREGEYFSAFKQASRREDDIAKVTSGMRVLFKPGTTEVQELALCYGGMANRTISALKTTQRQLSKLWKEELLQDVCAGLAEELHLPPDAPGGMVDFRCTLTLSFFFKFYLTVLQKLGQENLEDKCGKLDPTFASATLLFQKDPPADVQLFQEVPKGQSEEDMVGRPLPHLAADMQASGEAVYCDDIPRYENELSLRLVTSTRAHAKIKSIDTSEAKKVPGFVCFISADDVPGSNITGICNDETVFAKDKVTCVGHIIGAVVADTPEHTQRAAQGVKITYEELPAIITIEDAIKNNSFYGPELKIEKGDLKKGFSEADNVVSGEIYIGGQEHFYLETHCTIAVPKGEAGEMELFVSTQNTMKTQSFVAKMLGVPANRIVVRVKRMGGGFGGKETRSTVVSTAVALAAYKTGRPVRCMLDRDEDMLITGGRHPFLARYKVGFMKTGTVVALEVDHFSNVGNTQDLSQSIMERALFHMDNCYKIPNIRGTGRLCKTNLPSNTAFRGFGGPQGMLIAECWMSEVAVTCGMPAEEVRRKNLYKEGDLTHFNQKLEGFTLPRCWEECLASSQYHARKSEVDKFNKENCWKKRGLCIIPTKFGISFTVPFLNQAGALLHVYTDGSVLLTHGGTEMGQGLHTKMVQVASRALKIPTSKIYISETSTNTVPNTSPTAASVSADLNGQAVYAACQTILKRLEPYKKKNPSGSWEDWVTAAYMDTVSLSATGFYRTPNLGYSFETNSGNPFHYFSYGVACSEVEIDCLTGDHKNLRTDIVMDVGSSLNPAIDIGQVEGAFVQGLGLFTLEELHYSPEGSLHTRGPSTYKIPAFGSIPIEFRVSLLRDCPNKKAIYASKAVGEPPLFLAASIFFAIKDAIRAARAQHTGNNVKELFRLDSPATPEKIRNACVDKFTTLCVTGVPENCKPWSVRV
- Run description: In vitro XO inhibitory potency (enzyme catalysis reaction, OD 295 nm)
- Format: biochemical
- Condition parameters: IC50 mean, S1 Table, mean of three determinations; unit inferred
Recorded metric: pIC50
# pIC50 is unitless: minus log10 of the molar concentration; print number only

Query Cc1nc(-c2ccc(OCC(C)C)c(C#N)c2)sc1C(=O)O [Febuxostat, reference compound] yields pIC50 of 5.48

====

- Assay target: Xanthine oxidase (XO) (Homo sapiens, UniProt P47989)
- Run description: In vitro XO inhibitory potency (enzyme catalysis reaction, OD 295 nm)
- Format: biochemical
- Condition parameters: S1 Table, single determination 2 of 3; unit inferred; read-out: IC50 (second replicate column)
Recorded metric: pIC50
The read-out pIC50 is expressed as -log10 of concentration in moles per litre.

Data point: "CCNC(=O)N1CCSC1=S" ; pIC50 = 4.63

Lab note: measured pIC50 of "CCN1CCSC1=S" was 4.39

Form field pIC50, entry "CC(C)CNC(=O)N1CCSC1=S" : 4.75

Per the record, "CCCCNC(=O)N1CCSC1=S" has pIC50 of 4.48

Input "SC1=NCCS1" . Output pIC50: 4.14

The molecule listed as "O=C(NC1CCCCC1)N1CCSC1=S" shows pIC50 equal to 4.96

====

Field: IC50. Provide a value for each of the compounds that follow.
- Assay target: Xanthine oxidase (XO) (Homo sapiens)
- Run description: In vitro XO inhibitory potency (enzyme catalysis reaction, OD 295 nm)
- Type: biochemical
- Condition parameters: S1 Table, single determination 1 of 3; unit inferred; read-out: IC50 (first replicate column)

So, "O=C(Nc1ccccc1)N1CCSC1=S" ? Its IC50 was 10.6 µM

Value of IC50 reported for the compound "O=C(NCc1ccccc1)N1CCSC1=S" is 12.8 µM

The compound identified as "CCNC(=O)N1CCSC1=S" registered its IC50 at 19.9 µM

Record summary for "O=C(NS(=O)(=O)c1ccccc1)N1CCSC1=S" : reported IC50 = 5.19 µM

Entry "S=C1SCCN1Cc1ccccc1" , IC50 reported as 122 µM

compound "CCCN1CCSC1=S" , IC50 observed: 50.5 µM

Consider "Cc1ccc(S(=O)(=O)NC(=O)N2CCSC2=S)cc1" . Its measured IC50 is 11.5 µM

// "O=C(NC1CCCCC1)N1CCSC1=S" : IC50 value = 8.25 µM

Field IC50 (entry "SC1=NCCS1" ) reads 74.1 µM

Data point: "CCCNC(=O)N1CCSC1=S" ; IC50 = 27.2 µM

Short answer for "CC(C)CNC(=O)N1CCSC1=S" : IC50 was 21 µM

For record "CCCCNC(=O)N1CCSC1=S" the listed IC50 is 30.1 µM

IC50 recorded for this compound, "S=C1SCCN1c1ccccc1" , is 49.4 µM

The reported value for "CCN1CCSC1=S" in terms of IC50 is 43.4 µM

Record "O=C(Nc1cccnc1)N1CCSC1=S" . Reported IC50: 17.7 µM

Query "O=C(NS(=O)(=O)c1ccc(F)cc1)N1CCSC1=S" yields IC50 of 3.19 µM

====

- Assay target: UniProtKB P47989
- Run description: In vitro XO inhibitory potency (enzyme catalysis reaction, OD 295 nm)
- Format: biochemical
- Condition parameters: IC50 (second replicate column), S1 Table, single determination 2 of 3; unit inferred
Recorded metric: IC50 (nM)
// units = nM; emit number, no label

What the record says about Cc1nc(-c2ccc(OCC(C)C)c(C#N)c2)sc1C(=O)O [Febuxostat, reference compound] : IC50 is 2910

====

- Assay target: Xanthine oxidase (XO) (Homo sapiens, UniProt P47989)
- Run description: In vitro XO inhibitory potency (enzyme catalysis reaction, OD 295 nm)
- Type: biochemical
- Condition parameters: S1 Table, single determination 2 of 3; unit inferred; read-out: IC50 (second replicate column)
Provide the reported pIC50 of each item.
Bear in mind: pIC50 is minus log10 of a mol/L concentration; give just that figure.

# "S=C1SCCN1Cc1ccccc1" with Xanthine oxidase (XO) (Homo sapiens, UniProt P47989): pIC50 is 3.96

Field pIC50 (Xanthine oxidase (XO) (Homo sapiens, UniProt P47989)), entry "CCCNC(=O)N1CCSC1=S" : 4.56

Item "O=C(Nc1cccnc1)N1CCSC1=S" ; assay system Xanthine oxidase (XO) (Homo sapiens, UniProt P47989); pIC50 reported as 4.82

Field pIC50 (system: Xanthine oxidase (XO) (Homo sapiens, UniProt P47989)) for entry "O=C(NS(=O)(=O)c1ccccc1)N1CCSC1=S" = 5.40

Xanthine oxidase (XO) (Homo sapiens, UniProt P47989) data for "O=C(NCc1ccccc1)N1CCSC1=S" ; its pIC50: 4.83

I looked up "O=C(Nc1ccccc1)N1CCSC1=S" and its pIC50 for Xanthine oxidase (XO) (Homo sapiens, UniProt P47989) was 5.08

The measured pIC50 that "CCCN1CCSC1=S" showed for Xanthine oxidase (XO) (Homo sapiens, UniProt P47989) is 4.24

So the reported pIC50 for "S=C1SCCN1c1ccccc1" , on Xanthine oxidase (XO) (Homo sapiens, UniProt P47989), turned out to be 4.28

Query "Cc1ccc(S(=O)(=O)NC(=O)N2CCSC2=S)cc1" on Xanthine oxidase (XO) (Homo sapiens, UniProt P47989); pIC50 returned: 5.07

// assay Xanthine oxidase (XO) (Homo sapiens, UniProt P47989), entry "O=C(NS(=O)(=O)c1ccc(F)cc1)N1CCSC1=S" , pIC50 value = 5.35

====

- Assay target: Xanthine oxidase (XO) (Homo sapiens, UniProt P47989)
- Run description: Enzyme inhibitory kinetics (Lineweaver-Burk plots)
- Assay type: biochemical
- Condition parameters: from secondary plot of Lineweaver-Burk slopes; XO 55 U/L
- Method: The inhibitory mode of representative compound 6k was further investigated using enzyme inhibitory kinetic studies. XO solution (55 U/L) was mixed respectively with compound 6k (0, 5, 10, and 20 μmol/L) and incubated at 37°C for 5 min. […] The reaction was carried out in a 96-well plate and the OD value were read using a microplate reader at 295 nm. The obtained data were analyzed using Microsoft Excel 2013 and transformed into Lineweaver-Burk plots using GraphPad Prism 7.0. […]
Recorded metric: pKi
// scale note: pKi = -log10(conc_M); give the bare number

Record O=C(NS(=O)(=O)c1ccc(F)cc1)N1CCSC1=S [Compound 6k] . Reported pKi: 5.15

====

- Assay target: UniProtKB P47989
- Run description: In vitro XO inhibitory potency (enzyme catalysis reaction, OD 295 nm)
- Type: biochemical
- Condition parameters: IC50, mean±SD, tested in triplicate; xanthine substrate, 37°C, PBS pH 7.4
- Protocol: XO inhibitory activity was measured by enzyme catalysis reaction in vitro, with modifications. The XO solution (100 U/L) and xanthine solution (0.5 mmol/L) were prepared in PBS (10 mmol/L, pH = 7.4) and stored at 4°C. The test compounds were diluted to different concentrations with PBS. The enzyme catalysis reaction was performed in 96-well plates.
Recorded metric: IC50 (µM)
Output spec: scalar in µM, unitless text.

# compound Cc1nc(-c2ccc(OCC(C)C)c(C#N)c2)sc1C(=O)O [Febuxostat, reference compound] ; its IC50 = 3.34
